Where these numbers come from: the supplement of paper PMC12645437

- tested_on: T1, CRBN, Q96SW2
- T1 chain: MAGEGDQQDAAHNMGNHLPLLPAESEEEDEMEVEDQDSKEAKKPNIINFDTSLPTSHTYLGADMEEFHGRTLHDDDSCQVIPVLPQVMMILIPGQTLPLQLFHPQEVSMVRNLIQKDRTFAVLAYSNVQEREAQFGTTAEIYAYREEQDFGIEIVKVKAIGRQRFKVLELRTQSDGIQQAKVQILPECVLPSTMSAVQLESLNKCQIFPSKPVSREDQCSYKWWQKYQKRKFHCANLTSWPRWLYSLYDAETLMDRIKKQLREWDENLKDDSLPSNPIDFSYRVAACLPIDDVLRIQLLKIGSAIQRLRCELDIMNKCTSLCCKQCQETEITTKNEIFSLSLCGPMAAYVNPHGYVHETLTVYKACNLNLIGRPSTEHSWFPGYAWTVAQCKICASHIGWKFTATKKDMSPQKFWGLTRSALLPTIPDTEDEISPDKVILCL
- protocol: log2 fold change of degron read counts, EGFP-low vs EGFP+ sorted cells (limma voom), compound-induced degradation; higher = more compound-induced degradation of the degron-EGFP fusion; degrons are variants of IKZF1/3 zinc finger 2; compound dose not given here;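 note: pooled lentiviral library of zinc finger degron-EGFP fusions in mCherry-positive Jurkat cells, FACS-sorted after compound exposure, with degron abundance counted by next-generation sequencing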
- assay_conditions: Jurkat; 18 h; compound: compound 33 (diphenyl IMiD analogue)
Whole data set: some 8,300 sequences, median “log2 fold change of degron read counts, EGFP-low vs EGFP+ sorted cells (limma voom), compound-induced degradation” near -1.1, cut for the highest 2% near 3.2. Only a selection was taken, and the highest values are over-represented in it overall.
Consider the reported log2 fold change of degron read counts of an entry and match it to a band in lower range (below 0.8), middle range (0.8 to below 1), upper range (1 or more)

{"seq_string": "FYCEICGAGFTQKGNLLRHIKL [46F_47Y_49E_50I_52G_53A_54G_55F_67L_, Q9UKT9]", "class_name": "upper range"}
{"seq_string": "FLCPICGASFTQKGNLLRHIKL [46F_47L_49P_50I_52G_53A_54S_55F_67L_, Q9UKT9]", "class_name": "upper range"}
{"seq_string": "FVCEICGRKFTQKGNLLRHIKL [46F_47V_49E_50I_52G_53R_54K_55F_67L_, Q9UKT9]", "class_name": "lower range"}
{"seq_string": "FECDICGASFTQKGNLLRHIKL [46F_47E_49D_50I_52G_53A_54S_55F_67L_, Q9UKT9]", "class_name": "lower range"}
{"seq_string": "FCCDICGASFTQKGNLLRHIKL [46F_47C_49D_50I_52G_53A_54S_55F_67L_, Q9UKT9]", "class_name": "middle range"}
{"seq_string": "FACPICGALFTQKGNLLRHIKL [46F_47A_49P_50I_52G_53A_54L_55F_67L_, Q9UKT9]", "class_name": "lower range"}
{"seq_string": "FYCPICGASFTQKGNLLRHIKL [46F_47Y_49P_50I_52G_53A_54S_55F_67L_, Q9UKT9]", "class_name": "upper range"}
{"seq_string": "FQCEICGAGFTQKGNLLRHIKL [46F_47Q_49E_50I_52G_53A_54G_55F_67L_, Q9UKT9]", "class_name": "upper range"}
{"seq_string": "FLCEICGAGFTQKGNLLRHIKL [46F_47L_49E_50I_52G_53A_54G_55F_67L_, Q9UKT9]", "class_name": "upper range"}
{"seq_string": "FWCPICGASFTQKGNLLRHIKL [46F_47W_49P_50I_52G_53A_54S_55F_67L_, Q9UKT9]", "class_name": "upper range"}
{"seq_string": "FICDVCGASFTQKGNLLRHIKL [46F_47I_49D_50V_52G_53A_54S_55F_67L_, Q9UKT9]", "class_name": "lower range"}
{"seq_string": "FECEICGAGFTQKGNLLRHIKL [46F_47E_49E_50I_52G_53A_54G_55F_67L_, Q9UKT9]", "class_name": "middle range"}
{"seq_string": "FRCDQCGAQFTQKGNLLRHIKL [46F_47R_49D_50Q_52G_53A_54Q_55F_67L_, Q9UKT9]", "class_name": "lower range"}
